- Experiment Summary: Cmax in ICR mouse at 50 mg/kg, po
- Type: ADME, organism-based
- Parameters: dose 50 mg/kg, route oral
- Settings: in vivo
Readout: Cmax
Include the unit after the number when you answer.

CC(C)[C@H](N)C(=O)OC1CCN(S(=O)(=O)c2cc(C(=O)Nc3cc(F)c(F)c(F)c3)ccc2F)CC1 | 11500 ng/mL

Exercise: Form field: reported Cmax of O=C(Nc1cc(F)c(F)c(F)c1)c1ccc(F)c(S(=O)(=O)N2CCC(O)CC2)c1
Key: 66100 ng/mL

* * *

Measured half-life, listed per entry.
- Experiment Summary: Half life in ICR mouse at 50 mg/kg, po
- Assay type: ADME, organism-based
- Settings: in vivo
Include the unit after the number when you answer.

CC(C)[C@H](N)C(=O)OC1CCN(S(=O)(=O)c2cc(C(=O)Nc3cc(F)c(F)c(F)c3)ccc2F)CC1 | 1.23 h

Let us examine a further case.
Exercise: Form field: reported half-life of O=C(Nc1cc(F)c(F)c(F)c1)c1ccc(F)c(S(=O)(=O)N2CCC(O)CC2)c1
Key: 8.14 h

* * *

Measured AUC(0-t), listed per entry.
- Experiment Summary: AUC (0 to t) in ICR mouse at 50 mg/kg, po
- Assay type: ADME, organism-based
- Settings: in vivo
Please respond with the number in µg·h/mL and leave the unit unwritten.

O=C(Nc1cc(F)c(F)c(F)c1)c1ccc(F)c(S(=O)(=O)N2CCC(O)CC2)c1 | 456

Exercise: Form field: reported AUC(0-t) of CC(C)[C@H](N)C(=O)OC1CCN(S(=O)(=O)c2cc(C(=O)Nc3cc(F)c(F)c(F)c3)ccc2F)CC1
Key: 6.65

* * *

- Experiment Summary: Cytotoxicity against human HepG2.2.15 cells
- Format: cell-based, HepG2 2.2.15
Measured CC50, listed per entry.

C[C@H](N)C(=O)OC1CCN(S(=O)(=O)c2cc(C(=O)Nc3cc(F)c(F)c(F)c3)ccc2F)CC1 | 4.81 µM
N[C@@H](Cc1ccccc1)C(=O)OC1CCN(S(=O)(=O)c2cc(C(=O)Nc3cc(F)c(F)c(F)c3)ccc2F)CC1 | > 10 µM
CCC(C)[C@H](N)C(=O)OC1CCN(S(=O)(=O)c2cc(C(=O)Nc3cc(F)c(F)c(F)c3)ccc2F)CC1 (some centres undefined) | > 10 µM

Let us examine a further case.
Exercise: Form field: reported CC50 of NCC(=O)OC1CCN(S(=O)(=O)c2cc(C(=O)Nc3cc(F)c(F)c(F)c3)ccc2F)CC1
Key: > 10 µM

* * *

- Experiment Summary: Solubility of compound at pH 2 by HPLC-UV analysis
- Assay type: physicochemical
- Settings: buffer
Readout: solubility (µg/mL)
Please respond with the number in µg/mL and leave the unit unwritten.

Exercise: Form field: reported solubility of O=C(Nc1cc(F)c(F)c(F)c1)c1ccc(F)c(S(=O)(=O)N2CCC(O)CC2)c1
Key: 3

* * *

- Experiment Summary: Cytotoxicity against human HepG2.2.15 cells
- Format: cell-based, HepG2 2.2.15
Measured CC50, listed per entry.
Please respond with the number in µM and leave the unit unwritten.

CC(C)C[C@H](N)C(=O)OC1CCN(S(=O)(=O)c2cc(C(=O)Nc3cc(F)c(F)c(F)c3)ccc2F)CC1 | 5.77

Let us examine a further case.
Exercise: Form field: reported CC50 of O=C(Nc1cc(F)c(F)c(F)c1)c1ccc(F)c(S(=O)(=O)N2CCC(O)CC2)c1
Key: 4.81
